Target Under Test: Ephrin type-A receptor 2 (Homo sapiens, UniProt P29317)
Sequence (P29317 whole entry, the tested form may be a part): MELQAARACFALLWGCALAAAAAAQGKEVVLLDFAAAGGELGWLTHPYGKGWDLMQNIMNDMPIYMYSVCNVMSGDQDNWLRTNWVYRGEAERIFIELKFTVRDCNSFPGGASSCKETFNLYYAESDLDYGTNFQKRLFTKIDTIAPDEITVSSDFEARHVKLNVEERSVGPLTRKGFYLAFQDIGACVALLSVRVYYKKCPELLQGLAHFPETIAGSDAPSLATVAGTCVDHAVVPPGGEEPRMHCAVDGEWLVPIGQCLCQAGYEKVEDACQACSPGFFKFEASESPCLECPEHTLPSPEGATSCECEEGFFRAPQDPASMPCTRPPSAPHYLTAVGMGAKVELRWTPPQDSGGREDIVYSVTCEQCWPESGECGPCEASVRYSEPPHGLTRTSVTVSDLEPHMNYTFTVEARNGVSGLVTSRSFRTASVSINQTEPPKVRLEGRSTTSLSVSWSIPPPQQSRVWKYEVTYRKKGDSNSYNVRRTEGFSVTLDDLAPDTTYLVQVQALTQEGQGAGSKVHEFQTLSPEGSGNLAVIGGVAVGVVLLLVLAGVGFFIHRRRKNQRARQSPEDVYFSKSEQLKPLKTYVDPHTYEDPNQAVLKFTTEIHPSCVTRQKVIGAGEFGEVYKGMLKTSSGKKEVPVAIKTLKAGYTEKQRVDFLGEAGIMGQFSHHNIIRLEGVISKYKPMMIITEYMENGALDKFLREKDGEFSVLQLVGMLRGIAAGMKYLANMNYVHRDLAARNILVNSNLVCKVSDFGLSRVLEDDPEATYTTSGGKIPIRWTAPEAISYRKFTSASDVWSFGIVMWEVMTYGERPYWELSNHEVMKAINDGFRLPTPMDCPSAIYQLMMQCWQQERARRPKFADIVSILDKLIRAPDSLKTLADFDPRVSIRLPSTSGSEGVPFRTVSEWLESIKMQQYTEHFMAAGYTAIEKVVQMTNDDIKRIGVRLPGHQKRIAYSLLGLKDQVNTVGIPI
Assay Procedure: Inhibition of recombinant human N-terminal His6-tagged EphA2 (N598 to R890 residues) expressed in baculovirus using poly-EY as substrate after 180 mins by luciferase coupled chemiluminescence assay
pIC50: −log10 of the molar value.
Attribute Measured: pIC50

CCCCCN1CCOC(COc2cc3ncnc(Nc4ccc(Cl)c(Cl)c4)c3cc2OC)C1 (configuration not stated)	6.00 to 7.30

Q: // fetch pIC50 given entry COc1cc2c(Nc3ccc(Cl)c(Cl)c3)ncnc2cc1OCC1CN(C2CCC2)CCO1 (configuration not stated)
A: 6.00 to 7.30

Q: For COc1cc2c(Nc3ccc(Cl)c(Cl)c3F)ncnc2cc1OC[C@@H]1CN(C)CC(=O)N1 , write its pIC50.
A: 6.00 to 7.30

Q: Report measured pIC50; entry is COc1cc2c(Nc3ccc(Cl)c(Cl)c3F)ncnc2cc1OC[C@@H]1CN2CCC[C@@H]2C(=O)N1
A: > 7.30

Q: Complete the entry with pIC50 for COc1cc2c(Nc3ccc(Cl)c(Cl)c3)ncnc2cc1OCC1CN(CCO)CCO1 (configuration not stated)
A: 6.00 to 7.30

Q: Recall and state the measured pIC50 for COc1cc2c(Nc3ccc(F)c(Cl)c3F)ncnc2cc1OC[C@@H]1CN2CCC[C@H]2CO1 .
A: > 7.30

Q: // Input: COc1cc2c(Nc3ccc(Cl)c(Cl)c3)ncnc2cc1OCC1CN(C(=O)C(C)(C)C)CCO1 (configuration not stated) . Output its pIC50 only.
A: 6.00 to 7.30

Q: Please give the documented pIC50 of COc1cc2c(Nc3ccc(Cl)c(Cl)c3)ncnc2cc1OCc1nc(CS(=O)(=O)c2ccccn2)no1
A: 6.00 to 7.30

Q: Tell me measured pIC50 for COc1cc2c(Nc3ccc(Br)c(Cl)c3F)ncnc2cc1OC[C@@H]1CN2CCOC[C@H]2CO1 please.
A: > 7.30

Q: Retrieve pIC50 measured for COc1cc2c(Nc3ccc(Cl)c(Cl)c3)ncnc2cc1OCC1CN(S(C)(=O)=O)CCO1 (configuration not stated) and print it.
A: > 7.30

Q: Identify measured pIC50 corresponding to CCC(CC)CN1CCOC(COc2cc3ncnc(Nc4ccc(Cl)c(Cl)c4)c3cc2OC)C1 (configuration not stated)
A: 6.00 to 7.30

Q: Report measured pIC50; entry is COc1cc2c(Nc3cc(Cl)ccc3F)ncnc2cc1OCC1CN(C)CCO1 (configuration not stated)
A: 6.00 to 7.30

Q: Please supply the value of reported pIC50 for the item COc1cc2c(Nc3ccc(Cl)c(Cl)c3)ncnc2cc1OCC1CN(CC2CCCCC2)CCCO1 (configuration not stated)
A: 6.00 to 7.30

Q: Look up and report measured pIC50 for this entry: COc1cc2c(Nc3cc(Cl)c(Cl)cc3F)ncnc2cc1OCC1CN(C)C(C)(C)CO1 (configuration not stated)
A: > 7.30

Q: Name the recorded pIC50 of the compound listed here: CN1CCOC(COc2cc3ncnc(Nc4ccc(Cl)c(Cl)c4)c3cc2O)C1 (configuration not stated)
A: 6.00 to 7.30

Q: Provide pIC50 value for the following compound: COc1cc2c(Nc3ccc(Cl)c(Cl)c3)ncnc2cc1OCC1CN(C2CCN(C)CC2)CCO1 (configuration not stated)
A: 6.00 to 7.30

Q: Please look at this compound and report its pIC50: COc1cc2c(Nc3ccc(Cl)c(Cl)c3)ncnc2cc1OCC1CN(C(=O)c2c(C)noc2C)CCO1 (configuration not stated)
A: 6.00 to 7.30
